Origin of values: PubChem BioAssay (NCI)

Test system: NCI-H226 lung
Method notes: NCI-60 one-dose screen, 48 h (100 = growth as untreated, 0 = no growth, -100 = all killed)
Stated conditions: 10 µM unless noted
The panel holds about 83,000 compounds, 20% with a hit somewhere; the sample as a whole holds those more often.
Below, each entry is listed alongside its reported growth.
Hi! Could you send only the number? It should be in %, unit omitted.

CN1CCN(c2ccc(Nc3nc(NCCNC(=O)c4ccccc4)c4sccc4n3)cc2)CC1: 108
CCOP(=O)(OCC)OC[C@]12CCC(C)(C)C[C@H]1C1=CC[C@@H]3[C@@]4(C)CC[C@H](OP(=O)(OCC)OCC)C(C)(C)[C@@H]4CC[C@@]3(C)[C@]1(C)CC2: 66.1
Cc1ccc2c(n1)C(=O)C(Cl)=C(Nc1ccc(C#N)cc1)C2=O: 98.3
CC1=C(C)C(=O)C(Nc2cccc(C(=O)OC(C)(C)C)c2)=C(Cl)C1=O: 91.3
CCN(CC)S(=O)(=O)c1ccc(-c2nc(C(Cl)Cl)nc3cc(C)nn23)cc1: 69.7

Here's the next entry for you.
Please provide the recorded growth for C#C[C@]1(O)CC[C@H]2[C@@H]3CC=C4c5sc(N(C)c6ccccc6)nc5CC[C@]4(C)[C@H]3CC[C@@]21C , tested on NCI-H226 lung. 96.4
